Lab note: pIC50 readings collected with aldose reductase (Homo sapiens) for the following compounds.
Reminder that pIC50 is minus the log10 of a molar concentration.

Illustrative cases are given below, each with its answer.
Cc1ccc(/C=C2\SC(=O)N(CC(=O)c3ccc([N+](=O)[O-])cc3)C2=O)cc1 | 6.26
Cc1ccc(/C=C2\SC(=O)N(Cc3nc4ccccc4s3)C2=O)cc1 | 6.54
O=C(CN1C(=O)S/C(=C\c2cccc([N+](=O)[O-])c2)C1=O)c1ccc([N+](=O)[O-])cc1 | 6.29
O=C1S/C(=C\c2ccc([N+](=O)[O-])cc2)C(=O)N1Cc1nc2ccccc2s1 | 5.70
O=C(CN1C(=O)S/C(=C\c2ccc(F)cc2)C1=O)c1ccc([N+](=O)[O-])cc1 | 6.24
COc1ccc(/C=C2\SC(=O)N(CC(=O)c3ccc([N+](=O)[O-])cc3)C2=O)cc1 | 6.55

Identify the measured pIC50 of COc1cc(/C=C2\SC(=O)N(Cc3nc4ccccc4s3)C2=O)cc(OC)c1OC for aldose reductase (Homo sapiens).
6.57

For the record O=C(CN1C(=O)S/C(=C\c2cccc(Br)c2)C1=O)c1ccc([N+](=O)[O-])cc1 , what value of pIC50 is listed for aldose reductase (Homo sapiens)?
6.39

aldose reductase (Homo sapiens) / pIC50 / O=C1S/C(=C\c2ccc(F)cc2)C(=O)N1Cc1nc2ccccc2s1 : value?
6.48

Missing value: pIC50, aldose reductase (Homo sapiens), entry COc1cc(/C=C2\SC(=O)N(CC(=O)c3ccc([N+](=O)[O-])cc3)C2=O)cc(OC)c1OC . Fill in?
6.14

----------
Here's a batch of molecules along with measured pIC50 for aldose reductase (Homo sapiens).
A value of pIC50 is the negative decimal logarithm of a concentration given in moles per litre.

O=C1S/C(=C\c2ccc(Br)cc2)C(=O)N1Cc1nc2ccccc2s1 [Compound 8c] | 6.68

Any idea what pIC50 was measured for O=C(CN1C(=O)S/C(=C\c2ccc(Cl)cc2)C1=O)c1ccc([N+](=O)[O-])cc1 [Compound 5b] ?
6.34

I am curious: what pIC50 value has been reported for COc1ccc(/C=C2\SC(=O)N(Cc3nc4ccccc4s3)C2=O)cc1 [Compound 8f] ?
6.03

Return reported pIC50; argument: O=C(CN1C(=O)S/C(=C\c2ccc(Br)cc2)C1=O)c1ccc([N+](=O)[O-])cc1 [Compound 5c]
6.31

Look at this molecule and give its reported pIC50. O=C(CN1C(=O)S/C(=C\c2ccc([N+](=O)[O-])cc2)C1=O)c1ccc([N+](=O)[O-])cc1 [Compound 5a]
6.66

For the molecule O=C1S/C(=C\c2ccc(Cl)cc2)C(=O)N1Cc1nc2ccccc2s1 [Compound 8b] , what pIC50 is on record?
6.80

Item under review: COc1ccc(/C=C2\SC(=O)N(Cc3nc4ccccc4s3)C2=O)cc1OC [Compound 8h] . Reported pIC50?
6.35
